Source listed as PubChem BioAssay.

Target: Follistatin (Homo sapiens)
Assay: follistatin binders on small-molecule microarrays, primary screen, biochemical, small-molecule microarray, 635/667 nm fluorescence (AID 1132)
Settings: FST binding, 635 nm fluorescence, higher = more signal
value.type: composite z-score
Form: value (number only, do not type unit).

Examples with their reported composite z-score follow.
{"compound": "CCCC[C@@H]1C[C@H]1[C@@H](NC(=O)c1cccs1)c1ccc(C(F)(F)F)cc1", "measured.number": 0.301}
{"compound": "COc1cccc(/C=C/C=O)c1", "measured.number": 0.261}
{"compound": "O=C1O[C@H](c2ccccc2)[C@H](c2ccccc2)N2[C@H]1[C@@H](C(=O)O)[C@]1(C(=O)Nc3ccc(C#CC4=CCCCC4)cc31)[C@H]2c1ccc(O)cc1", "measured.number": 1.35}
{"compound": "[N-]=[N+]=NCc1ccccc1[C@H]1OC(c2ccc(OCCCO)cc2)=N[C@@]1(CCS(=O)(=O)c1ccccc1)C(=O)N1CCCCC1", "measured.number": 1.1}

-- ask Give Follistatin (Homo sapiens) composite z-score for `C=CC[C@@]1(C(=O)N2CCOCC2)N=C(c2ccc(OCCCO)cc2)O[C@@H]1c1ccccc1CN=[N+]=[N-]`
-- reply 1.35

-- ask Repeat for the following compound: `[N-]=[N+]=Nc1ccccc1[C@H]1OC(c2ccc(OCCCO)cc2)=N[C@@]1(CCS(=O)(=O)c1ccccc1)C(=O)NCCN1CCOCC1`
-- reply 1.34

-- ask Another compound to check: CCCCCCCCCCC(O)C1C=CC2C(=O)N(C)C(=O)C2N1NC(=O)OC(C)(C)C (configuration not stated)
-- reply -0.406

-- ask What do we get for `COCCOC(=O)N1C(=O)[C@@]2(c3cc(C#CCC(C(=O)OC)C(=O)OC)ccc31)[C@H](C(=O)N1CCc3cc(OC)c(OC)cc3C1)[C@H]1C(=O)O[C@H](c3ccccc3)[C@H](c3ccccc3)N1[C@@H]2c1ccc(OCCO)cc1` ?
-- reply 1.31

-- ask Quick one: `COC(=O)[C@@]1(Cc2ccccc2)[C@@H]2C(=CC(=O)[C@H]2CC(=O)C(=O)N(C)C)CN1C(=O)c1ccccc1`
-- reply 0.324

-- ask Follow-up entry: `COCCCNC(=O)[C@@]1(Cc2ccccc2N=[N+]=[N-])COC(c2ccc(OCCCO)cc2)=N1`
-- reply 0.773

-- ask Please answer likewise for O=C1OCC=C[C@H]2OC34C=CCN(Cc5ccccc5)C(=O)[C@H]3N(CCCCCCO)C(=O)[C@@H]4[C@@H]12 (some centres not stated)
-- reply -0.562

-- ask And the next one, `COC(=O)c1nc2oc1CC[C@@H](CO)NC(=O)N(C)Cc1cnnn1C[C@H](Cc1ccccc1)NC2=O` ?
-- reply -0.701

====

Assay: PSAC antagonists in infected red cells, primary screen, cell-based, P. falciparum Indochina, OD700, 2 h (AID 1155);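 note: lysis reports solute entry through the parasite surface anion channel PSAC; channel blockers reduce lysis of infected cells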
Conditions: P. falciparum Indochina infected erythrocytes, osmotic lysis OD700; higher = more signal, called active from +8 up or from −8 down
value.type: z-score
Lab note: record the figure alone, no unit after it.

{"compound": "COc1ccc([Si](C)(C)[C@@H]2[C@@H](CC(=O)N(CCO)Cc3ccccc3)O[C@]3(C(=O)N(Cc4cccc(N5C(=O)c6cccc7cccc5c67)c4)c4ccccc43)[C@H]2C)cc1", "z-score": 0.343}
{"compound": "CN1C(=O)C2C=CC(C(O)C#Cc3ccccc3)N(Nc3ccccc3)C2C1=O (centres undefined)", "z-score": 0.783}
{"compound": "O=C1O[C@@H](c2ccccc2)[C@@H](c2ccccc2)N2[C@@H](c3ccc(O)cc3)[C@]3(C(=O)Nc4ccc(C#CC5(O)CCCCCC5)cc43)[C@@H](C(=O)NC[C@H](O)c3ccccc3)[C@H]12", "z-score": 0.707}

// moving on: another record for z-score
-- ask Param item = `C[C@@H]1ON(c2ccc(C(=O)OC(C)(C)C)cc2)[C@H](c2ccc(O)cc2)[C@H]1C(=O)N1C(=O)OC[C@H]1Cc1ccccc1` ; retrieve measured z-score.
-- reply 0.709
